# experiment.notes: Total clearance in rat at 2 mg/kg, iv or 5 mg/kg, po
# Format: ADME, organism-based
# conditions: in vivo
Would you mind telling me the reported clearance of each entry?
Quick note: give the figure in mL/min/kg, leave out the unit.

Query: Bench note: what clearance did COc1ccc2nc(C(F)(F)F)c3c(c2c1)CC[C@]1(C[C@H]2C(=O)N[C@]4(C(=O)NS(=O)(=O)C5(C)CC5)C[C@H]4/C=C\CCCCC[C@H](NC(=O)OCC(C)C)C(=O)N2C1)O3.[K+] show?
Response: 4.7

Query: Reported clearance for C=C[C@@H]1C[C@]1(NC(=O)[C@@H]1C[C@]23CCc4c(c(nc5ccc(OC)cc45)CCCCC[C@@H]4CCC[C@H]4OC(=O)N[C@@H](C(C)(C)C)C(=O)N1C2)O3)C(=O)NS(=O)(=O)C1CC1.[K+] : what is it?
Response: 5.7

----------
# experiment.notes: Drug uptake in rat liver at 5 mg/kg, po measured after 24 hrs
# Assay type: ADME, organism-based
# conditions: read-out: Drug uptake
test.readout: concentration at 24 h (µM)
Respond numerically; units are µM and should not be typed.

Query: Recorded concentration at 24 h of COc1ccc2nc(C(F)(F)F)c3c(c2c1)CC[C@]1(C[C@H]2C(=O)N[C@]4(C(=O)NS(=O)(=O)C5(C)CC5)C[C@H]4/C=C\CCCCC[C@H](NC(=O)OCC(C)C)C(=O)N2C1)O3.[K+] , please.
Response: 28

----------
# tested.system: Hepatitis C virus serine protease, NS3/NS4A (Hepatitis C virus, UniProt A3EZI9+D2K2A8, R155K)
# experiment.notes: Inhibition of HCV genotype 1b NS3/4A protease R155K mutant assessed as substrate cleavage using Ac-C(Eu)DDMEEAbu(COO)ASK(QSY7)-amide as substrate incubated for 30 mins prior to substrate addition measured after 2.5 hrs by time-resolved fluorescence assay
Record form. Attribute: IC50. Fill in for each entry.
Dear colleague, please return just the value in nM, with no unit written.

Query: Would you mind telling me what IC50 value was observed for CC[C@@H]1C[C@]1(NC(=O)[C@@H]1C[C@]23CCc4c(c(nc5ccc(OC)cc45)CCCCC[C@@H]4C[C@H]4OC(=O)N[C@@H](C(C)(C)C)C(=O)N1C2)O3)C(=O)NS(=O)(=O)C1CC1 ?
Response: 0.08

Query: Quick one: IC50 of C=C[C@@H]1C[C@]1(NC(=O)[C@@H]1C[C@]23CCc4c(c(nc5ccc(OC)cc45)CCCCC[C@@H]4C[C@H]4OC(=O)N[C@@H](C(C)(C)C)C(=O)N1C2)O3)C(=O)NS(=O)(=O)C1CC1 ?
Response: 0.02

Query: Consider the compound C=C[C@@H]1C[C@]1(NC(=O)[C@@H]1C[C@]23CCc4c(c(nc5ccc(OC)cc45)CCCCC[C@@H]4C[C@H]4OC(=O)N[C@@H](C4(C)CCCCC4)C(=O)N1C2)O3)C(=O)NS(=O)(=O)C1(C)CC1 and give its measured IC50.
Response: 0.07

----------
Please go through the items and note down their pEC50.
# Test system: Hepatitis C virus
# experiment.notes: Antiviral activity against HCV genotype 1b infected in human HuH7 cells assessed as reduction viral RNA level after 72 hrs by RT-PCR method
# Type: functional, cell-based, Hepacivirus hominis
# conditions: Huh-7, 72 h
The quantity pEC50 is defined as the negative base-10 logarithm of the molar concentration.

Query: Under Hepatitis C virus: pEC50 value of C=C[C@@H]1C[C@]1(NC(=O)[C@@H]1C[C@]23CCc4c(c(nc5ccc(OC)cc45)CCCCC[C@@H]4C[C@H]4OC(=O)N[C@@H](C4(C)CCCCC4)C(=O)N1C2)O3)C(=O)NS(=O)(=O)C1CC1 ?
Response: 9.00

Query: State its pEC50 on Hepatitis C virus: C=C[C@@H]1C[C@]1(NC(=O)[C@@H]1C[C@]23CCc4c(c(nc5ccc(OC)cc45)CCCCC[C@@H]4C[C@H]4OC(=O)N[C@@H](C(C)(C)C)C(=O)N1C2)O3)C(=O)NS(=O)(=O)C1CC1
Response: 8.80

Query: # returns recorded pEC50 (system: Hepatitis C virus) for COc1ccc2nc3c4c(c2c1)CC[C@]1(C[C@H]2C(=O)N[C@]5(C(=O)NS(=O)(=O)C6(C)CC6)C[C@H]5/C=C\CCCCC[C@H](NC(=O)O[C@@H]5CCC[C@H]5CCCCC3)C(=O)N2C1)O4
Response: 9.10

Query: Find the measured pEC50: item COc1ccc2nc(C(F)(F)F)c3c(c2c1)CC[C@]1(C[C@H]2C(=O)N[C@]4(C(=O)NS(=O)(=O)C5(C)CC5)C[C@H]4/C=C\CCCCC[C@H](NC(=O)OCC(C)C)C(=O)N2C1)O3 , target or system Hepatitis C virus.
Response: 8.92

Query: Form entry - test system: Hepatitis C virus; read-out: pEC50; compound: C=C[C@@H]1C[C@]1(NC(=O)[C@@H]1C[C@]23CCc4c(c(nc5ccc(OC)cc45)CCCCC[C@@H]4CCC[C@H]4OC(=O)N[C@@H](C(C)(C)C)C(=O)N1C2)O3)C(=O)NS(=O)(=O)C1(C)CC1
Response: 8.74

----------
# tested.system: Hepatitis C virus serine protease, NS3/NS4A (Hepatitis C virus, UniProt A3EZI9+D2K2A8, R155K)
# experiment.notes: Inhibition of HCV genotype 1b NS3/4A protease R155K mutant assessed as substrate cleavage using Ac-C(Eu)DDMEEAbu(COO)ASK(QSY7)-amide as substrate incubated for 30 mins prior to substrate addition measured after 2.5 hrs by time-resolved fluorescence assay
Give IC50 for every item shown.
Provide only the numeric value, understood in nM.

Query: Please look up its IC50: C=C[C@@H]1C[C@]1(NC(=O)[C@@H]1C[C@]23CCc4c(c(nc5ccc(OC)cc45)CCCCC[C@@H]4CCC[C@H]4OC(=O)N[C@@H](C(C)(C)C)C(=O)N1C2)O3)C(=O)NS(=O)(=O)C1CC1
Response: 0.03

Query: Return reported IC50; argument: C=C[C@@H]1C[C@]1(NC(=O)[C@@H]1C[C@]23CCc4c(c(nc5ccc(OC)cc45)CCCCC[C@@H]4C[C@H]4OC(=O)N[C@@H](C(C)(C)C)C(=O)N1C2)O3)C(=O)NS(=O)(=O)C1(C)CC1
Response: 0.05

Query: Given the molecule C=C[C@@H]1C[C@]1(NC(=O)[C@@H]1C[C@]23CCc4c(c(nc5ccc(OC)cc45)CCCCC[C@@H]4C[C@H]4OC(=O)N[C@@H](C4(C)CCCCC4)C(=O)N1C2)O3)C(=O)NS(=O)(=O)C1CC1 , what is its reported IC50?
Response: 0.05

Query: Suppose we examine the molecule C=C[C@@H]1C[C@]1(NC(=O)[C@@H]1C[C@]23CCc4c(c(nc5ccc(OC)cc45)CCCCC[C@@H]4CCC[C@H]4OC(=O)N[C@@H](C(C)(C)C)C(=O)N1C2)O3)C(=O)NS(=O)(=O)C1(C)CC1 ; what IC50 value has been reported?
Response: 0.04

Query: Entry under review: COc1ccc2nc3c4c(c2c1)CC[C@]1(C[C@H]2C(=O)N[C@]5(C(=O)NS(=O)(=O)C6(C)CC6)C[C@H]5/C=C\CCCCC[C@H](NC(=O)O[C@@H]5CCC[C@H]5CCCCC3)C(=O)N2C1)O4 . Reported IC50?
Response: 0.05

----------
# Test system: Hepatitis C virus
# experiment.notes: Antiviral activity against HCV genotype 1b infected in human HuH7 cells assessed as reduction viral RNA level after 72 hrs by RT-PCR method
# Assay type: functional, cell-based, Hepacivirus hominis
# conditions: Huh-7, 72 h
I'd be grateful if you could share measured pEC50 for these entries.
# reply with the number alone; pEC50 is -log10 of concentration in mol/L

Query: Query pEC50 on Hepatitis C virus for C=C[C@@H]1C[C@]1(NC(=O)[C@@H]1C[C@]23CCc4c(c(nc5ccc(OC)cc45)CCCCC[C@@H]4C[C@H]4OC(=O)N[C@@H](C(C)(C)C)C(=O)N1C2)O3)C(=O)NS(=O)(=O)C1(C)CC1
Response: 9.00

Query: Test system Hepatitis C virus; read-out pEC50; what value for C=C[C@@H]1C[C@]1(NC(=O)[C@@H]1C[C@@H]2CN1C(=O)[C@H](C(C)(C)C)NC(=O)O[C@@H]1C[C@H]1CCCCCc1nc3ccc(OC)cc3nc1O2)C(=O)NS(=O)(=O)C1CC1 [GRAZOPREVIR ANHYDROUS] ?
Response: 9.22

Query: Please state recorded pEC50 (tested on Hepatitis C virus) of C=C[C@@H]1C[C@]1(NC(=O)[C@@H]1C[C@]23CCc4c(c(nc5ccc(OC)cc45)CCCCC[C@@H]4C[C@H]4OC(=O)N[C@@H](C4(C)CCCCC4)C(=O)N1C2)O3)C(=O)NS(=O)(=O)C1(C)CC1
Response: 8.82

Query: Hepatitis C virus / pEC50 / CC[C@@H]1C[C@]1(NC(=O)[C@@H]1C[C@]23CCc4c(c(nc5ccc(OC)cc45)CCCCC[C@@H]4C[C@H]4OC(=O)N[C@@H](C(C)(C)C)C(=O)N1C2)O3)C(=O)NS(=O)(=O)C1CC1 : value?
Response: 8.55

Query: For the record C=C[C@@H]1C[C@]1(NC(=O)[C@@H]1C[C@]23CCc4c(c(nc5ccc(OC)cc45)CCCCC[C@@H]4CCC[C@H]4OC(=O)N[C@@H](C(C)(C)C)C(=O)N1C2)O3)C(=O)NS(=O)(=O)C1CC1 , what value of pEC50 is listed for Hepatitis C virus?
Response: 9.05
